- assaySystem: His-JNK3 (ref 14-501, Upstate) (UniProt P53779 1-422)
- Sequence (P53779 other isoform, or with tags, fused parts or gaps): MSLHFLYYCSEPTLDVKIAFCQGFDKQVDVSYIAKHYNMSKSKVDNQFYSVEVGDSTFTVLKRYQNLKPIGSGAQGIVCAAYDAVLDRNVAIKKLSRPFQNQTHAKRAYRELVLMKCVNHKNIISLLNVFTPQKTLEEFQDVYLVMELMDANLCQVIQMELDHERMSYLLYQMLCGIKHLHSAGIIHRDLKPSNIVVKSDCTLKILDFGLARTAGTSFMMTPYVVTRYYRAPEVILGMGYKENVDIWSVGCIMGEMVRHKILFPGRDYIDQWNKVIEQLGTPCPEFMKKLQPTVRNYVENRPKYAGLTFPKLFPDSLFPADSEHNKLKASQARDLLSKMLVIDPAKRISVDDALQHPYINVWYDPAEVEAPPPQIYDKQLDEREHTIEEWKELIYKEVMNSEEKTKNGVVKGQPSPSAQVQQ
- assayProcedure: kinase inhibition
Square brackets hold non-standard residues; d marks the D form. Ends that are not written are not given here.
Item-by-item account of pIC50
Reminder that pIC50 is minus the log10 of a molar concentration.

>>> readoutvalue("[dR]KKR[dR]QR[dR]KRP[dA]TLNL[dF] [SEQ ID NO: 184]")
6.89
>>> readoutvalue("[dR]KKR[dR]QRR[dR]RPTTLNL[dF] [SEQ ID NO: 174]")
7.20
>>> readoutvalue("[dR]KKR[dR]QR[dR]RP[dA]TLNL[dF] [SEQ ID NO: 183]")
6.70

Entry under review: [dR]KKR[dR]QRR[dR]RP[dK]RPTTL[dR]L[dF] [SEQ ID NO: 173] . Reported pIC50?
7.78

And for [dR]KKR[dR]QRR[dR]RKAL[dR]L[dF] [SEQ ID NO: 190] ?
6.80

And for [dR]KKR[dR]QRR[dR]RP[dK]RPTDLNL[dF] [SEQ ID NO: 177] ?
7.34

And for [dR]KKR[dR]QRR[dR]RP[dK]AA[dA]AANA[dF] [SEQ ID NO: 200] ?
5.42

And for [dR]KKR[dR]QRR[dR]RP[dK]RP[dQ]TLNL[dF] [SEQ ID NO: 186] ?
7.35

And for GRKKRRQRRRPPKRPTTLNLFPQVPRSQD [SEQ ID NO: 194] ?
8.59

And for GRKKRRQRRRPTTLNLFPQVPRSQD [SEQ ID NO: 195] ?
8.31

And for [dR]KKR[dR]QR[dR]RPTDL[dR]L[dW] [SEQ ID NO: 181] ?
7.32

And for [dR]KKR[dR]QRR[dR]RP[dA]TLNL[dF] [SEQ ID NO: 182] ?
7.23

Cited source: patent US20160115200A1
